This listing pairs molecules with measured pIC50.
- SUBJECT OF TEST: human GnRH receptor (Homo sapiens)
- Sequence (P30968 whole entry): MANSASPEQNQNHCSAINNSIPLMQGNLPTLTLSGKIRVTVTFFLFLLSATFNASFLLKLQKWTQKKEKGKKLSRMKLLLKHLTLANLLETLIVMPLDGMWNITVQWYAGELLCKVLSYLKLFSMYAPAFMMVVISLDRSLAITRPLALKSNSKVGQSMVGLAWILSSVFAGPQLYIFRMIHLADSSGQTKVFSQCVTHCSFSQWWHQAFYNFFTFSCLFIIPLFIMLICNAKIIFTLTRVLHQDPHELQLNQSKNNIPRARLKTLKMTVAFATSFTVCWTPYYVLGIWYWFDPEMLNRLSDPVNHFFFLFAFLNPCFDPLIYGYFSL
- EXPERIMENT: IP-One HTRF assay with buserelin (at EC80) stimulation
- PARTICULARS: CHO cells stably expressing human GnRH receptor, read-out: Potency in IP-One HTRF assay, given as IC50
- Excerpt: 2.3. IP-One HTRF® Assay By using homogenous time-resolved fluorescence resonance energy transfer (HTRF), the generation of one component of the GnRH—R signalling cascade can be measured. […] In cell lysates, IP1 can be detected via an antibody-based HTRF detection technology, where IP1 can displace the FRET acceptor IP1-d2 from binding by Terbium-labelled anti-IP1 antibody as donor resulting in a signal decrease. […]
pIC50: −log10 of the molar value.

{"MOLECULE": "CC1N(S(=O)(=O)c2ccc(F)cc2)c2ccc(C(=O)NCc3ccccc3Cl)cc2C12CCOCC2 (stereo not drawn) [Example 2]", "pIC50": 6.72}
{"MOLECULE": "CN(C)C(=NS(=O)(=O)c1cccc(NC(=O)c2ccc3c(c2)C2(CCS(=O)(=O)CC2)C(C2CC2)N3S(=O)(=O)c2ccc(F)cc2)c1)N(C)C (single isomer, unassigned) [Example 64.2]", "pIC50": 7.18}
{"MOLECULE": "O=C(Nc1ccon1)c1ccc2c(c1)C1(CCS(=O)(=O)CC1)C(C1CC1)N2S(=O)(=O)c1ccc(F)cc1 (single isomer, unassigned) [Example 63.1]", "pIC50": 7.06}
